# protocol: physchem
# conditions: octan-1-ol/water, pH 7.4, LogD7.4
logD strictly less than 3 = Yes. Otherwise No.

Answered cases to consult:
INSERT INTO results (molecule, cat) VALUES
  ('CSc1nc2cc(Cl)ccc2[nH]1', 'No'),
  ('COC(=O)c1c(O)cccc1OC/C=C/c1ccc(F)c(-c2cc(C(=O)O)no2)c1', 'Yes'),
  ('Cc1nc(C)c(-c2ccc([C@H]3CC[C@H](CCC(=O)O)CC3)cc2)nc1C(N)=O', 'Yes'),
  ('Cc1ccc(-c2nn(C(C)(C)C)c3ncnc(N)c23)cc1', 'No'),
  ('CCn1c2nc(=O)n(C)c(=O)c-2cc2ccccc21', 'Yes'),
  ('CN(C)c1ccccc1S(=O)(=O)NC(=O)N1CCC(N2CCC(Oc3ccc(Cl)c(Cl)c3)CC2)CC1', 'Yes'),
  ('CCN(C(=O)c1ccc(-c2ccc(Cl)cc2)o1)c1ccc(N2CCNCC2)cc1', 'No'),
  ('CC(C)C(NC(=O)Cn1c(-c2ccccc2)ccc(NS(=O)(=O)NCc2ccccc2)c1=O)C(=O)C(F)(F)F (stereo unspecified)', 'Yes'),
  ('CNC(=O)c1snnc1-c1ccccc1', 'Yes'),
  ('O=S(=O)(NCC(c1ccccc1)N1CCCCCC1)c1cccnc1 (stereo unspecified)', 'Yes');

Quick check: does COC(=O)CCCCCCC(=O)Nc1ccc2c(c1)C(=O)C(=O)c1ccccc1-2 have logD under 3?
Yes

Please do the same for CC(=O)c1cn(Cc2ccccc2)c(=O)n(Cc2ccc(F)cc2)c1=O as well.
No

Can you handle Cc1ccc(S(=O)(=O)NC(=O)N2CCC(N3CCC(Oc4ccc(Cl)cc4C)CC3)CC2)cc1 next?
Yes
